Target: tumor necrosis factor alpha (TNFα) (human, UniProt P01375 77-233)
Sequence (P01375 77-233 limits assumed): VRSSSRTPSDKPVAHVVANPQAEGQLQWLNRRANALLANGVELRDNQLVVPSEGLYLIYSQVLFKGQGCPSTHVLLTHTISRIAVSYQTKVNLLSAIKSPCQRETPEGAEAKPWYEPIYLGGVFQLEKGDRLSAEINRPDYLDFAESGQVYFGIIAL
Experiment: affinity by IC50 ELISA (so named in paragraph 380)
propertyName: Affinity (nM)
Just the number please, in nM, no unit attached.

Inquiry: # get_value(readout='Affinity', item= MAb 1043 (antibody, V domains shown, IgG1/kappa, CHO; also called H1483/L332) VH: EVQLLESGGGLIQPGGSLRLSCAASGFTVSSNYMSWVRQAPGKGLEWVSVIYSGGRTYYADSVKGRFTISRDSSKNTLYLQMNSLRAEDTAVYYCARNYYGSTMDYWGQGTLVTVSS VL: EIVLTQSPVTLSVPPGERASLSCRASQNIYTAVAWYQQKPGQAPRLLIYGASTRATGIPARFSGGGSGTDYTLTISSLESEDFAVYHCQQWHSWPLTFGGGTKLEIK )
Reply text: 0.31

---
Inquiry: What Affinity value was documented for this binder, MAb 1131 (antibody, V domains shown, IgG1/kappa, CHO; also called H1518/L332) VH: EVQLLESGGGLIQPGGSLRLSCAASGFTVSSNYMSWVRQAPGKGLEWVSVIYSGGRTYYADSVKGRFTISRDSSKNTLYLQMNSLRAEDTAVYYCARNYYGSTHDYWGQGTLVTVSS VL: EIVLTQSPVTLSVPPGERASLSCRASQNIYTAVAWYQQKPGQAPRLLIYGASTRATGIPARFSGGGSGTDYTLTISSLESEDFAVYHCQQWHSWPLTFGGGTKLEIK ?
Reply text: 0.13
